Origin of values: patent US20110028441A1

target: PDE4B (Homo sapiens); test: Scintillation Proximity (SPA) Assay of PDE4B enzyme inhibition; assay type: biochemical; settings: test substance 1 μM; one hour incubation of [H3]-cAMP with PDE4B enzyme at 30° C.; read-out: % Inhibition PDE4B @ 1 μM
Sequence (Q07343 whole entry, species assumed): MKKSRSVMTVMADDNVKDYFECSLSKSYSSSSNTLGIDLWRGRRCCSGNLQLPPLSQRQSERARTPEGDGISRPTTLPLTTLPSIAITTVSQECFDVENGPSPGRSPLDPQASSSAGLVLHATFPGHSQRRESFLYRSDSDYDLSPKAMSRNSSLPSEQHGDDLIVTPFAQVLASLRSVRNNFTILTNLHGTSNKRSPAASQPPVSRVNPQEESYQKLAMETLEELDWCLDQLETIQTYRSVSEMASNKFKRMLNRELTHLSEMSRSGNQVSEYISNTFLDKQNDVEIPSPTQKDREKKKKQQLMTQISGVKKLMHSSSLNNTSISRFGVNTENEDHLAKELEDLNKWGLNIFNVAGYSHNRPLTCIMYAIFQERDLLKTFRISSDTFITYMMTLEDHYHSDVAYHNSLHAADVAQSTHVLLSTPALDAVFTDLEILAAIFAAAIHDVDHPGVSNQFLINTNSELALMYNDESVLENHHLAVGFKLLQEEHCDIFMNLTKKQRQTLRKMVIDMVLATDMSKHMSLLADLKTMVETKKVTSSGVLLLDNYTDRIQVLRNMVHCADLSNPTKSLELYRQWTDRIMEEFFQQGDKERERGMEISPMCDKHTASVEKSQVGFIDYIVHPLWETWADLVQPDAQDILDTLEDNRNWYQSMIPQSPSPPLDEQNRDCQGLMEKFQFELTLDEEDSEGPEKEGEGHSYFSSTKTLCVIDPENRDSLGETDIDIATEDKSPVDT
MEASUREMENT LABEL: inhibition at 1 µM (%)

1. [O-][S+]1CCc2nc(N3CCN(c4cccc(F)c4)CC3)nc(NC3CCOCC3)c21 (centres unmarked) = 96
2. [O-][S+]1CCc2nc(N3CCN(c4ccc(Cl)cc4F)CC3)nc(NC3(CO)CC3)c21 (centres unmarked) = 94
3. CC(C)[C@H](CO)Nc1nc(N2CCN(c3cc(Cl)cc(Cl)c3)CC2)nc2c1[S+]([O-])CC2 (some centres unmarked) = 96
4. Cc1cccc(N2CCN(c3nc4c(c(Nc5cccc(F)c5)n3)[S+]([O-])CC4)CC2)c1 (centres unmarked) = 96
5. CC(C)[C@H](CO)Nc1nc(N2CCN(c3ccc(Cl)cc3F)CC2)nc2c1[S+]([O-])CC2 (some centres unmarked) = 92
6. CN1C[C@@H](Nc2nc(N3CCN(c4ccccc4Cl)CC3)nc3c2[S+]([O-])CC3)CCC1=O (some centres unmarked) = 96
7. Cc1cc(N2CCN(c3nc4c(c(NC(CO)C(C)C)n3)[S+]([O-])CC4)CC2)ccc1Cl (centres unmarked) = 63
8. CC(C)[C@H](CO)Nc1nc(N2CCN(c3ccccc3Cl)CC2)nc2c1[S+]([O-])CC2 (some centres unmarked) = 88
